In this section, each of the sequences is paired with its reported IC50.
# target_of_assay: HLA-A*02:06
# assay_notes: IEDB peptide-MHC binding, purified MHC/competitive/radioactivity; bounds were set here for any values at or beyond the usual limits of such assays
# test_parameters: source organism: Influenza A virus
Give the quantity in nM, number only.

Worked set:
INSERT INTO measurements (seq, recorded_value) VALUES
  ('FQVDCFLWH', 93),
  ('NMLSTVLGV', 71);

# IC50 (sequence: SCLENFRAYV ) is 162

###

# target_of_assay: HLA-A*02:01
# assay_notes: IEDB peptide-MHC binding, purified MHC/competitive/radioactivity; bounds were set here for any values at or beyond the usual limits of such assays
# test_parameters: source organism: Vaccinia virus WR
assay_endpoint: IC50 (nM)
Give the quantity in nM, number only.

Worked set:
INSERT INTO measurements (seq, target_of_assay, recorded_value) VALUES
  ('IVAAVIIMA', 'HLA-A*02:01', 1810),
  ('YIDAYVSRL', 'HLA-A*02:01', 1.9),
  ('YLPKQPEGVI', 'HLA-A*02:01', 279),
  ('KQFIQRGGL', 'HLA-A*02:01', 3990),
  ('YLFDYPHFEA', 'HLA-A*02:01', 0.085),
  ('KLNGAMVEYV', 'HLA-A*02:01', 6.1);

# IC50 (sequence: LMIFISSFLL ) is 27

# IC50 (sequence: ATNIFPFFV ) is 17

# IC50 (sequence: KLFLIKKMA ) is 1070

###

In this section, each of the sequences is paired with its reported IC50.
# target_of_assay: HLA-A*02:01
# assay_notes: IEDB peptide-MHC binding, purified MHC/competitive/radioactivity; bounds were set here for any values at or beyond the usual limits of such assays
# test_parameters: source organism: Mammarenavirus choriomeningitidis
Give the quantity in nM, number only.

Worked set:
INSERT INTO results (seq, assay_endpoint, recorded_value) VALUES
  ('YLISIFLHLV', 'IC50', 5.8),
  ('LSAEELMSL', 'IC50', 2210);

# IC50 (sequence: YCNYSKFWYL ) is 1710

# IC50 (sequence: YIACRTSIV ) is 46

###

# target_of_assay: HLA-A*02:06
# assay_notes: IEDB peptide-MHC binding, cellular MHC/competitive/fluorescence; bounds were set here for any values at or beyond the usual limits of such assays
# test_parameters: source organism: Vaccinia virus WR
Threshold 20 µM: IC50 strictly smaller gives MET, otherwise NOT MET.

INSERT INTO assay_data (seq, discrete_label) VALUES
  ('LTNKKYRCMA', 'NOT MET'),
  ('VIVENDNVI', 'MET'),
  ('ALTDVEKRI', 'MET'),
  ('WLTPFEKEFT', 'NOT MET'),
  ('KLDDTGKKEL', 'MET'),
  ('FVKKMLPKII', 'MET'),
  ('VISTIANSNI', 'MET'),
  ('ILSEKRKDTI', 'NOT MET'),
  ('SVNASKTINA', 'NOT MET'),
  ('NMKPNFWSRI', 'MET');

Is 20 µM strictly greater than the sequence's reported IC50? sequence: EIVSHLRAST MET

Is 20 µM strictly greater than the sequence's reported IC50? sequence: EILRNYLRL MET

Is 20 µM strictly greater than the sequence's reported IC50? sequence: AARLKRSAT NOT MET

Is 20 µM strictly greater than the sequence's reported IC50? sequence: AIDRQVSVKL NOT MET

###

# target_of_assay: HLA-A*02:02
# assay_notes: IEDB peptide-MHC binding, purified MHC/competitive/radioactivity; bounds were set here for any values at or beyond the usual limits of such assays
# test_parameters: source organism: Mammarenavirus brazilense
assay_endpoint: log10(IC50) (log10 of the value in nM)
Would you kindly interpret these values as log10 of IC50 expressed in nM?

INSERT INTO measurements (seq, assay_endpoint, recorded_value) VALUES
  ('LNISGYNYSL', 'log10(IC50)', 1.89),
  ('GLLEWIFRA', 'log10(IC50)', 1.34),
  ('MSPALFFTFL', 'log10(IC50)', 2.74),
  ('LLPDALLFTL', 'log10(IC50)', 0.67),
  ('TSLGLLYTV', 'log10(IC50)', 2.97);

# log10(IC50) (sequence: KNATWCLEV ) is 3.21

# log10(IC50) (sequence: SNPNLFWAV ) is 2.23

###

# target_of_assay: HLA-A*02:01
# assay_notes: IEDB peptide-MHC binding, cellular MHC/competitive/fluorescence; bounds were set here for any values at or beyond the usual limits of such assays
# test_parameters: source organism: Vaccinia virus WR
In this section, each of the sequences is paired with its reported IC50.
Give the quantity in µM, number only.

Worked set:
INSERT INTO results (seq, assay_endpoint, recorded_value) VALUES
  ('VAPMPTASTA', 'IC50', 25),
  ('DMLVNRMQRI', 'IC50', 11.7);

# IC50 (sequence: ATQFNFNGHT ) is 38.6

# IC50 (sequence: QVKDNIISRT ) is 40.9

# IC50 (sequence: QLVFNSISA ) is 9.42

# IC50 (sequence: KITFALKKLI ) is 64.7

# IC50 (sequence: FIVYGRSNA ) is 16.9

# IC50 (sequence: KTEHCDDFMT ) is 7.51

# IC50 (sequence: VIPDELIDVL ) is 33

###

# target_of_assay: HLA-A*02:06
# assay_notes: IEDB peptide-MHC binding, purified MHC/competitive/radioactivity; bounds were set here for any values at or beyond the usual limits of such assays
# test_parameters: source organism: Vaccinia virus WR
In this section, each of the sequences is paired with its reported IC50.
Give the quantity in nM, number only.

# IC50 (sequence: NILMDSIFV ) is 170

# IC50 (sequence: WISDNTHIYL ) is 1.8

# IC50 (sequence: VMHINSPFKV ) is 393

###

# target_of_assay: HLA-A*02:02
# assay_notes: IEDB peptide-MHC binding, purified MHC/competitive/radioactivity; bounds were set here for any values at or beyond the usual limits of such assays
# test_parameters: source organism: Hepacivirus hominis
In this section, each of the sequences is paired with its reported log10(IC50).
Would you kindly interpret these values as log10 of IC50 expressed in nM?

Worked set:
INSERT INTO results (seq, recorded_value) VALUES
  ('ALYGVWPLLL', 0.95),
  ('ILMTHFFSI', 0.83),
  ('KLLIAILGPL', 1.08),
  ('RLVPGATYAL', 1.08),
  ('VLVGGVLAAL', 1.04),
  ('ILMTHFFSIL', 1.54),
  ('LLMALPHQA', 1.72),
  ('LLIAITAFT', 1.57),
  ('LLAPITAYA', -0.57),
  ('MLCLLLLSV', 2.32);

# log10(IC50) (sequence: TLLGCWSFVL ) is 1.90

# log10(IC50) (sequence: FMLCLLLLS ) is 3.00

###

# target_of_assay: HLA-A*02:02
# assay_notes: IEDB peptide-MHC binding, cellular MHC/competitive/fluorescence; bounds were set here for any values at or beyond the usual limits of such assays
# test_parameters: source organism: Vaccinia virus WR
assay_endpoint: pIC50
pIC50 is defined as minus the log10 of a concentration measured in mol/L.

Observed pIC50 on HLA-A*02:02, entry DVCKKNLDL , equals 4.59

###

# target_of_assay: HLA-A*02:02
# assay_notes: IEDB peptide-MHC binding, purified MHC/competitive/radioactivity; bounds were set here for any values at or beyond the usual limits of such assays
# test_parameters: source organism: SARS-CoV1
pIC50: −log10 of the molar value.
Just so you know, the groups by pIC50 go like this: lower = under 7, middle = from 7 up to 9, upper = 9 and over

Field: example entries. Status: answers known.
INSERT INTO measurements (seq, target_of_assay, discrete_label) VALUES
  ('FLAHLQWFA', 'HLA-A*02:02', 'upper'),
  ('ALLADKFPV', 'HLA-A*02:02', 'middle'),
  ('YIFFASFYYI', 'HLA-A*02:02', 'upper'),
  ('LVFLILCFT', 'HLA-A*02:02', 'lower');

# bin lookup: classify VIADYNYKL by its pIC50 upper

###

# target_of_assay: HLA-A*02:03
# assay_notes: IEDB peptide-MHC binding, purified MHC/competitive/radioactivity; bounds were set here for any values at or beyond the usual limits of such assays
# test_parameters: source organism: Vaccinia virus WR
In this section, each of the sequences is paired with its reported IC50.
Give your result as the value with the unit written after it.

INSERT INTO measurements (seq, target_of_assay, assay_endpoint, recorded_value) VALUES
  ('DISDVKVLAA', 'HLA-A*02:03', 'IC50', '2200 nM');

# IC50 (sequence: KIVQLPKRGV ) is 51 nM

# IC50 (sequence: GIFVDTMSI ) is 936 nM
